Where these numbers come from: patent US4465687A

# measured_on: Human Polymorphonuclear Leukocyte Elastase (Homo sapiens, UniProt P08246)
# Construct: Crude extract of human polymorphonuclear leukocytes (PMN) containing elastase activity; endogenous in cells; host or cells: human polymorphonuclear leukocytes (crude extract)
# Sequence (P08246 30-247 limits assumed): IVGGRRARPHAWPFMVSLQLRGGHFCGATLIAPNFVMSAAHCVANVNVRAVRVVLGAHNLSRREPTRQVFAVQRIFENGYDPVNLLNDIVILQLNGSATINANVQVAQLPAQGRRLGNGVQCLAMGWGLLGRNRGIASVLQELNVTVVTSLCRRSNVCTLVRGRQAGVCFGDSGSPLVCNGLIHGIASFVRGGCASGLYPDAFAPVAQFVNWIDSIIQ
# assay_notes: Inhibition of human polymorphonuclear leukocyte elastase via hydrolysis of N-t-Boc-alanyl-alanyl-prolylalanine-p-nitroanilide
# Type: biochemical
# condition_label: Conc. of compound 5 μg/ml; measured within 2 minutes; crude PMN extract
# Procedure: Protocol--Enzyme Assays for the Inhibition of Human Polymorphonuclear Leukocyte Elastase Via Hydrolysis of N-t-Boc-alanyl-alanyl-prolylalanine-p-nitroanilide 0.05M TES (N-tris[hydroxymethyl]methyl-2-amino-ethanesulfonic acid) Buffer, pH 7.5. […] To 1.0 ml of 0.2 mM Boc-AAPAN in a cuvette, 0.01-0.1 ml of DMSO with or without inhibitor was added. […] 0.05 Milliliters of PMN extract was then added and the ΔOD/min at 410 mμ was measured and recorded. […]
assay_endpoint: inhibition at 5 µg/mL (%)
Only the number, expressed in %, is required.

compound	unit_text	endpoint_result
CC(O)[C@H]1C(=O)N2C(C(=O)OCc3ccc([N+](=O)[O-])cc3)=C(SCCNC(=O)Cc3ccccc3)C[C@H]12 (stereo partly shown)	%	84

Bench note: what inhibition at 5 µg/mL did CCCC(=O)NCCSC1=C(C(=O)OCc2ccc([N+](=O)[O-])cc2)N2C(=O)[C@H]([C@@H](C)OC(C)=O)[C@H]2C1 show?
31

Bench note: what inhibition at 5 µg/mL did CC(O)[C@H]1C(=O)N2C(C(=O)OCc3ccccc3)=C(SCCN3C(=O)c4ccccc4C3=O)C[C@H]12 (stereo partly shown) show?
89

Bench note: what inhibition at 5 µg/mL did CC(O)[C@H]1C(=O)N2C(C(=O)OCc3ccc([N+](=O)[O-])cc3)=C(SCCN3C(=O)c4ccccc4C3=O)C[C@H]12 (stereo partly shown) show?
93

----------
# measured_on: Human Polymorphonuclear Leukocyte Elastase (Homo sapiens, UniProt P08246)
# Construct: Crude extract of human polymorphonuclear leukocytes (PMN) containing elastase activity; endogenous in cells; host or cells: human polymorphonuclear leukocytes (crude extract)
# assay_notes: Inhibition of human polymorphonuclear leukocyte elastase via hydrolysis of N-t-Boc-alanyl-alanyl-prolylalanine-p-nitroanilide
# Format: biochemical
# condition_label: Conc. of compound 1 μg/ml; measured within 2 minutes; crude PMN extract
# Description: Protocol--Enzyme Assays for the Inhibition of Human Polymorphonuclear Leukocyte Elastase Via Hydrolysis of N-t-Boc-alanyl-alanyl-prolylalanine-p-nitroanilide 0.05M TES (N-tris[hydroxymethyl]methyl-2-amino-ethanesulfonic acid) Buffer, pH 7.5. […] To 1.0 ml of 0.2 mM Boc-AAPAN in a cuvette, 0.01-0.1 ml of DMSO with or without inhibitor was added. […] 0.05 Milliliters of PMN extract was then added and the ΔOD/min at 410 mμ was measured and recorded. […]
Below, each entry is listed with its recorded inhibition at 1 µg/mL.
Only the number, expressed in %, is required.

Some entries whose results are on file:
compound	measured_on	inhibition at 1 µg/mL, %
CC(O[Si](C)(C)C)[C@H]1C(=O)N2C(C(=O)OCc3ccc([N+](=O)[O-])cc3)=C(SCCN3C(=O)c4ccccc4C3=O)C[C@H]12 (stereo partly shown)	Human Polymorphonuclear Leukocyte Elastase (Homo sapiens, UniProt P08246)	38
CC(O)[C@H]1C(=O)N2C(C(=O)OCc3ccccc3)=C(SCCN3C(=O)c4ccccc4C3=O)C[C@H]12 (stereo partly shown)	Human Polymorphonuclear Leukocyte Elastase (Homo sapiens, UniProt P08246)	39
CC(O)[C@H]1C(=O)N2C(C(=O)OCc3ccc([N+](=O)[O-])cc3)=C(SCCN3C(=O)c4ccccc4C3=O)C[C@H]12 (stereo partly shown)	Human Polymorphonuclear Leukocyte Elastase (Homo sapiens, UniProt P08246)	76

Now for a further compound.
Bench note: what inhibition at 1 µg/mL did CC(O)[C@H]1C(=O)N2C(C(=O)OCc3ccc([N+](=O)[O-])cc3)=C(SCCNC(=O)Cc3ccccc3)C[C@H]12 (stereo partly shown) show?
47
